test: Cytotoxicity against african green monkey Vero cells assessed as reduction in cell viability after 72 hrs by MTT assay; type: toxicity, cell-based; settings: chlorocebus sabaeus
Give measured CC50 at 72 h for each item. Keep answers brief.

Exam item: CC50 at 72 h for O=C(NCc1nnc(-c2ccc(OC(F)(F)F)cc2)o1)c1ccc([N+](=O)[O-])o1 ?
Marked response: 3.48 µg/mL

Exam item: Can you handle CC(C)(C)c1ccc(-c2nnc(CNC(=O)c3ccc([N+](=O)[O-])o3)o2)cc1 next?
Marked response: 3.62 µg/mL

Exam item: Quick one: O=C(Nc1nnc(-c2ccc(Br)cc2)o1)c1ccc([N+](=O)[O-])o1
Marked response: 57.3 µg/mL

Exam item: Queued: O=C(NCc1nnc(-c2ccc(C(F)(F)F)cc2)o1)c1ccc([N+](=O)[O-])o1
Marked response: 3.56 µg/mL

---

tested on: Mycobacterium tuberculosis; assay: Antitubercular activity against Mycobacterium tuberculosis H37Ra ATCC 25177 assessed as reduction in bacterial growth incubated for 7 days by Alamar blue assay; type: functional; conditions: H37Ra ATCC 25177, 168 h, time 7 day
Exercise: for every item that follows, state its recorded MIC.

Exam item: Provide the documented MIC with Mycobacterium tuberculosis as the system for CC(C)(C)c1ccc(-c2nnc(CNC(=O)c3ccc([N+](=O)[O-])o3)o2)cc1
Marked response: 4.83 µg/mL

Exam item: Another molecule to look at: O=C(Nc1nnc(C2CCCO2)o1)c1ccc([N+](=O)[O-])o1 (centres undefined)
Marked response: 0.007 µg/mL

Exam item: Please do the same for O=[N+]([O-])c1ccc(-c2nnc(C3CCCCC3)o2)o1 as well.
Marked response: 1.97 µg/mL

Exam item: Ok, now O=C(Nc1nnc(-c2ccc(Cl)cc2)o1)c1ccc([N+](=O)[O-])o1
Marked response: 0.937 µg/mL

Exam item: Please give the result for O=C(Nc1nnc(-c2ccc(OC(F)(F)F)cc2)o1)c1ccc([N+](=O)[O-])o1 too.
Marked response: 1.23 µg/mL

Exam item: Okay, and O=[N+]([O-])c1ccc(-c2nnc(-c3ccc(Br)cc3)o2)o1 ?
Marked response: 0.597 µg/mL

Exam item: And then CC(C)(C)c1ccc(-c2nnc(NC(=O)c3ccc([N+](=O)[O-])o3)o2)cc1 , what is it?
Marked response: > 16 µg/mL

Exam item: Lookup O=[N+]([O-])c1ccc(-c2nnc(-c3ccccc3)o2)o1
Marked response: 1.59 µg/mL

Exam item: What about this molecule? CCC(CC)c1nnc(-c2ccc([N+](=O)[O-])o2)o1
Marked response: 0.911 µg/mL

Exam item: Same lookup for O=[N+]([O-])c1ccc(-c2nnc(-c3ccc(C(F)(F)F)cc3)o2)o1 , please.
Marked response: 0.125 µg/mL

Exam item: Item: O=C(Nc1nnc(-c2cccnc2)o1)c1ccc([N+](=O)[O-])o1
Marked response: 0.037 µg/mL

Exam item: Field entry: O=C(Nc1nnc(-c2ccncc2)o1)c1ccc([N+](=O)[O-])o1
Marked response: 0.038 µg/mL

Exam item: Please give the result for COc1ccc(-c2nnc(CNC(=O)c3ccc([N+](=O)[O-])o3)o2)cc1 too.
Marked response: 7.07 µg/mL

Exam item: Entry O=C(Nc1nnc(C2CCCCC2)o1)c1ccc([N+](=O)[O-])o1 please
Marked response: 0.025 µg/mL

Exam item: Now try CO[C@H]1/C=C/O[C@@]2(C)Oc3c(C)c(O)c4c(O)c(c(/C=N/N5CCN(C)CC5)c(O)c4c3C2=O)NC(=O)/C(C)=C\C=C\[C@H](C)[C@H](O)[C@@H](C)[C@@H](O)[C@@H](C)[C@H](OC(C)=O)[C@@H]1C .
Marked response: > 16 µg/mL

Exam item: Repeat with CC(C)c1nnc(-c2ccc([N+](=O)[O-])o2)o1
Marked response: 0.709 µg/mL

Exam item: Would you mind doing CC(C)(C)c1ccc(-c2nnc(-c3ccc([N+](=O)[O-])o3)o2)cc1 as well?
Marked response: 0.06 µg/mL

Exam item: Then O=[N+]([O-])c1ccc(-c2nnc(C3CCCO3)o2)o1 (centres undefined) ?
Marked response: 2 µg/mL

Exam item: Next molecule up: O=C(NCc1nnc(-c2ccc(C(F)(F)F)cc2)o1)c1ccc([N+](=O)[O-])o1
Marked response: 3.73 µg/mL

Exam item: # iterate: O=C(Nc1nnc(-c2ccc(F)cc2)o1)c1ccc([N+](=O)[O-])o1
Marked response: 2.47 µg/mL

Exam item: Request: O=C(Nc1nnc(-c2ccc(C(F)(F)F)cc2)o1)c1ccc([N+](=O)[O-])o1
Marked response: 0.999 µg/mL

Exam item: Now consider O=C(Nc1nnc(-c2ccccn2)o1)c1ccc([N+](=O)[O-])o1 .
Marked response: 0.03 µg/mL

Exam item: Please answer likewise for O=C(Nc1nnc(-c2ccc(Br)cc2)o1)c1ccc([N+](=O)[O-])o1
Marked response: 0.795 µg/mL

Exam item: Repeat for the following molecule: O=C(NCc1nnc(-c2ccc(OC(F)(F)F)cc2)o1)c1ccc([N+](=O)[O-])o1
Marked response: 9.86 µg/mL

---

For each record, write down the corresponding MIC.
tested on: Mycobacterium tuberculosis; test: Antitubercular activity against Mycobacterium tuberculosis H37Ra ATCC 25177 assessed as reduction in bacterial growth incubated for 7 days by Alamar blue assay; format: functional; settings: H37Ra ATCC 25177, 168 h, time 7 day
Express your answer in µg/mL, writing the number without its unit.

Exam item: Please report the recorded MIC for O=[N+]([O-])c1ccc(-c2nnc(-c3ccc(OC(F)(F)F)cc3)o2)o1 .
Marked response: 0.178

Exam item: Try this compound too: COc1ccc(-c2nnc(NC(=O)c3ccc([N+](=O)[O-])o3)o2)cc1
Marked response: 0.191

Exam item: Follow-up entry: O=C(NCc1nnc(-c2ccccc2)o1)c1ccc([N+](=O)[O-])o1
Marked response: 2.43

Exam item: Try COc1ccc(Cc2nnc(NC(=O)c3ccc([N+](=O)[O-])o3)o2)cc1 next.
Marked response: 0.02

Exam item: Thanks! And COc1ccc(-c2nnc(-c3ccc([N+](=O)[O-])o3)o2)cc1 ?
Marked response: 0.475

---

experiment: AUC(0 to infinity) in ICR mouse at 25 mg/kg, po measured upto 24 hrs by HPLC analysis; type: ADME, organism-based; set-up: dose 25 mg/kg, time < 24 hrs, route po; conditions: in vivo
value_kind: AUC(0-inf)

Exam item: Quick one: AUC(0-inf) for O=C(Nc1nnc(-c2ccc(Br)cc2)o1)c1ccc([N+](=O)[O-])o1 ?
Marked response: 110000 ng·h/mL

Exam item: What do we get for CC(C)(C)c1ccc(-c2nnc(CNC(=O)c3ccc([N+](=O)[O-])o3)o2)cc1 ?
Marked response: 99.3 ng·h/mL

---

biological target: hERG (KCNH2) (Homo sapiens); experiment: Inhibition of human ERG expressed in HEK293 cells at 10 uM by whole cell electrophysiology assay relative to control; type: toxicity, cell-based; details: HEK293 cells expressing hERG
value_kind: inhibition at 10 µM
I'd appreciate it if you wrote the number followed by its unit.

Exam item: What measured inhibition at 10 µM goes with O=C(Nc1nnc(-c2ccc(Br)cc2)o1)c1ccc([N+](=O)[O-])o1 ?
Marked response: 11.3%

---

Could you please report measured Tmax for the items listed next?
assay: Tmax in ICR mouse at 25 mg/kg, po measured upto 24 hrs by HPLC analysis; assay type: ADME, organism-based; settings: in vivo
The reply should contain only the number, in min.

Exam item: Any idea what its Tmax is? The compound is CC(C)(C)c1ccc(-c2nnc(CNC(=O)c3ccc([N+](=O)[O-])o3)o2)cc1
Marked response: 15

Exam item: One more compound: O=C(Nc1nnc(-c2ccc(Br)cc2)o1)c1ccc([N+](=O)[O-])o1
Marked response: 15

---

molecular target: Voltage-gated inwardly rectifying potassium channel KCNH2 (Homo sapiens); test: Inhibition of human ERG expressed in HEK293 cells by whole cell electrophysiology assay
Sequence (Q12809 whole entry): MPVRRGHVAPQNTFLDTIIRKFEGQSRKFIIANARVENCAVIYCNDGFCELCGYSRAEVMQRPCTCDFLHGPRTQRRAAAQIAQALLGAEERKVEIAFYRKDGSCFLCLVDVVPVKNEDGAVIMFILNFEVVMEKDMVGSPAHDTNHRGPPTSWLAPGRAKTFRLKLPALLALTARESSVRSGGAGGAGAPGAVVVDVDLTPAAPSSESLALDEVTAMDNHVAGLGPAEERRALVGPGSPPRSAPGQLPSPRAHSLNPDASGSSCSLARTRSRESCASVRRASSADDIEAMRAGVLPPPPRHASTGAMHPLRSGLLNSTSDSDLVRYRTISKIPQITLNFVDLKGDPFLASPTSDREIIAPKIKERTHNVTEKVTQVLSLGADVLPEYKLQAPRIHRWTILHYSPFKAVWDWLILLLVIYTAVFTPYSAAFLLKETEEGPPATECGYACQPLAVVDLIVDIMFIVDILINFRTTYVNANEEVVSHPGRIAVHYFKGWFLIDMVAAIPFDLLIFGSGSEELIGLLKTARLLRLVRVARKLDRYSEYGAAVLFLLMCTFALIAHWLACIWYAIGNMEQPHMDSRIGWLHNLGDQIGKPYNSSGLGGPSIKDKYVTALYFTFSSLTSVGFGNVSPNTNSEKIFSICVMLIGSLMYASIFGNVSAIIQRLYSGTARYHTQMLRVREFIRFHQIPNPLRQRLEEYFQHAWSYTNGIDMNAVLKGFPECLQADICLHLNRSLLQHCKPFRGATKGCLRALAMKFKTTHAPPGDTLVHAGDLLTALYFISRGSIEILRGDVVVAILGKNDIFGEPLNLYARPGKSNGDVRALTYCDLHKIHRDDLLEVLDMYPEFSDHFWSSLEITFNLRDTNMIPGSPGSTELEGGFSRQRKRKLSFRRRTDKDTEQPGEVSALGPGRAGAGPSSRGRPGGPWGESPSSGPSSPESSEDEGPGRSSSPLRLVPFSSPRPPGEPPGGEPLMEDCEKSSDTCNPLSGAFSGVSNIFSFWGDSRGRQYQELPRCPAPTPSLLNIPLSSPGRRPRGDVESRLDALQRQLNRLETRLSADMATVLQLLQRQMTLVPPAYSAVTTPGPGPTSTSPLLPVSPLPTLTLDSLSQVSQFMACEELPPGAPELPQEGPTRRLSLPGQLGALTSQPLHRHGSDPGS
value_kind: IC50

Exam item: Sample O=C(Nc1nnc(-c2ccc(Br)cc2)o1)c1ccc([N+](=O)[O-])o1 — what was its IC50?
Marked response: > 10 µM

---

Would you mind telling me the reported Cmax of each entry?
assay: Cmax in ICR mouse at 25 mg/kg, po measured upto 24 hrs by HPLC analysis; type: ADME, organism-based; design: dose 25 mg/kg, time < 24 hrs, route po; details: in vivo
Please give the number followed by its unit.

Exam item: // Cmax lookup, key: O=C(Nc1nnc(-c2ccc(Br)cc2)o1)c1ccc([N+](=O)[O-])o1
Marked response: 15800 ng/mL

Exam item: # iterate: CC(C)(C)c1ccc(-c2nnc(CNC(=O)c3ccc([N+](=O)[O-])o3)o2)cc1
Marked response: 139 ng/mL

---

experiment: MRT in ICR mouse at 25 mg/kg, po measured upto 24 hrs by HPLC analysis; type: ADME, organism-based; conditions: in vivo
Give MRT for every item shown.
Write down the value, and be sure its unit follows.

Exam item: I am curious: what MRT value has been reported for CC(C)(C)c1ccc(-c2nnc(CNC(=O)c3ccc([N+](=O)[O-])o3)o2)cc1 ?
Marked response: 0.92 h

Exam item: Then this compound: O=C(Nc1nnc(-c2ccc(Br)cc2)o1)c1ccc([N+](=O)[O-])o1
Marked response: 6.37 h
